Values compiled from patent US11873298B2.

- target_entity: SCD5 (Homo sapiens)
- Construct: host or cells: S. cerevisiae ole1Δ strain (W303 pdr1Δ pdr3Δ background), plasmid pRS316 with TDH3 promoter and CYC1 terminator
- protocol_description: Growth inhibition of humanized yeast strain expressing SCD5 as sole desaturase
- Type: cell-based
- condition_details: humanized yeast strain expressing SCD5
pIC50: −log10 of the molar value.
observable: pIC50

Examples with answers:
>>> df
                                   molecule  reported_value
0  COc1ccc(-c2noc(C3CCN(C(=O)CNC(c4ccccc4)C(F)(F)F)CC3)n2)cc1OC (stereo not shown) [Compound 34]          < 4.35
1  CCOc1ccc(-c2noc(N3CCN(C(=O)CN4Cc5ccccc5C4=O)CC3)n2)cc1OC [Compound 225]          < 4.35
2  Cc1nn(C)c2cc(-c3noc(C4CCN(C(=O)[C@@H]5CC(=O)N(c6ccc(C#N)cc6)C5)CC4)n3)ccc12 [Compound 308]          < 4.35

We now examine a further molecule.
Which pIC50 value belongs to O=C(c1ccccc1Cl)N1CCC(c2nc(-c3ccc4cnn(C5COC5)c4c3)no2)CC1 [Compound 562] ? 5.83

---

- target_entity: SCD5 (Homo sapiens, UniProt Q86SK9)
- Construct: host or cells: S. cerevisiae ole1Δ strain (W303 pdr1Δ pdr3Δ background), plasmid pRS316 with TDH3 promoter and CYC1 terminator
- Sequence (Q86SK9 whole entry): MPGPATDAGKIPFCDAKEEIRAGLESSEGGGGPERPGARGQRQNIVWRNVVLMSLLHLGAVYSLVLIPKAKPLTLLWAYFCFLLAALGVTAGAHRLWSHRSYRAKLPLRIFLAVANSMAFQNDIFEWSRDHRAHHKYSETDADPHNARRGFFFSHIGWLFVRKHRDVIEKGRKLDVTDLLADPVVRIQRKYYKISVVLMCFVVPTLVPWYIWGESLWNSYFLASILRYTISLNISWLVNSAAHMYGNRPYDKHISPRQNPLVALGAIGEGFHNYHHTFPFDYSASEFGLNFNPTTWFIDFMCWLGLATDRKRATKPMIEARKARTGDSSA
- protocol_description: Growth inhibition of humanized yeast strain expressing SCD5 as sole desaturase
- Format: cell-based
- condition_details: humanized yeast strain expressing SCD5
pIC50: −log10 of the molar value.
Please respond with reported pIC50 for every item in the list.

>>> print(df.to_string())
                                   molecule  observable  reported_value
0  Cc1nn(C)c2cc(-c3noc(C4CCN(C(=O)[C@H]5CC(=O)N(c6ccccc6)C5)CC4)n3)ccc12       pIC50          < 4.35
1  Cc1nn(C)c2cc(-c3noc(C4CCN(C(=O)CN)CC4(F)F)n3)ccc12 (stereo not shown)       pIC50          < 4.35
2  CC(C)n1cc2cc(-c3noc(C4CCN(C(=O)CNC(=O)c5ccccc5)CC4)n3)ccc2n1       pIC50          < 4.35

Fill in pIC50 for each of the 7 molecules listed.
1. COC(=O)N1CCC(c2nc(-c3ccc4cnn(C(F)F)c4c3)no2)CC1
2. COc1ccc(-c2noc(C3CCN(C(=O)[C@H](NC(=O)c4ccccc4)C4CC4)CC3)n2)cc1OC
3. CC(C)c1ccc(C(=O)N2CCC(c3nc(N4CC5(CCCO5)C4)no3)CC2)cc1
4. Cc1nn(C)c2cc(-c3nc([C@@H]4C[C@H]5CC[C@@H](C4)N5C(=O)OC(C)(C)C)no3)ccc12
5. N#Cc1cccc(N2C[C@@H](C(=O)N3CCC(c4nc(-c5ccc6cnn(C7COC7)c6c5)no4)CC3)CC2=O)c1
6. COc1cccc(-c2noc(C3CC(=O)N(c4ccc(C)c(C)c4)C3)n2)c1 (stereo not shown) [Compound 489]
7. Cc1nn(C)c2cc(-c3noc(C4CCN(C(=O)N5CCOCC5)CC4)n3)ccc12

4.53
< 4.35
< 4.35
< 4.35
< 4.35
4.39
< 4.35
